Tested on: HL-60
test: NCI tumour cell line growth inhibition, 48 h
Activity calls are given as the source filed them. Cut-off read from the data, not from the text of the source: active = GI50 up to about 1.1 µM and inactive = higher.
measured_endpoint: GI50

CC(C)C(=O)CP(=O)(O)O: > 100 µM (inactive)
CC(=O)O[C@H](C[C@@H](C)[C@H]1C(=O)[C@H](O)[C@@]2(C)C3CC[C@H]4C(C)(C)[C@@H](OC5OCC(O)C(O)C5O)CC[C@@]45C[C@@]35CC[C@]12C)[C@@H]1OC1(C)C (stereo not given in full): 2.21 µM (inactive)
N#Cc1c(Nc2nc3ccccc3s2)c2ccccc2n2c1nc1ccccc12: > 100 µM (inactive)
CCCn1c(=O)c2ccccc2[n+]2c(-c3ccc([N+](=O)[O-])cc3)csc12: 24.4 µM (inactive)
COc1cc(Cc2cc(OC)c(OC)c(OC)c2)ccc1O: 2.27 µM (inactive)
CC12CCc3ccccc3C1=NNC(=O)C2 (stereo not given): 82 µM (inactive)
O=Cc1c2n(c3ccccc13)N[C@@](Cc1ccc(O)cc1)(C(=O)O)C2: 47.1 µM (inactive)
S=C(N/N=C/c1ccccc1)NC12CC3CC(CC(C3)C1)C2: 31.2 µM (inactive)
CSC(Cc1ccc2c(c1)Sc1ccccc1O2)=[N+]1CCOCC1: 37.9 µM (inactive)

Now for a further molecule.
What value of measured GI50 is listed for COC(=O)C1=C(OC)c2cc3c(cc2C(c2cc(OC)c(OC)c(OC)c2)C1C(=O)OC)OCO3 (stereo not given) ?
> 100 µM (inactive)

====

Test system: TK-10
test: NCI tumour cell line growth inhibition, 48 h
The source made the active and inactive calls. No stated cut-off is given here; in the data, active = GI50 up to about 1.1 µM and inactive = higher.
measured_endpoint: GI50

# example entries with known answers
C/C(=N\NC(=S)Nc1ccc([N+](=O)[O-])cc1S(=O)(=O)O)c1ccccn1: 37.4 µM (inactive)
Cn1ccc(C(=O)NCCOCCNC(=O)c2ccn(C)c(=O)c2O)c(O)c1=O: > 100 µM (inactive)
NCC1OC(n2cnc3c(N)ncnc32)CC1O (stereo not given): > 100 µM (inactive)

What value of measured GI50 is listed for "O=NN1CCCS1(=O)=O" ?
> 100 µM (inactive)

What value of measured GI50 is listed for "O=[N+]([O-])c1ccc(-c2ccc(-c3csc(Nc4ccccc4)n3)o2)cc1" ?
19.1 µM (inactive)

====

System: SN12C
test: NCI tumour cell line growth inhibition, 48 h
Activity calls are given as the source filed them. Cut-off read from the data, not from the text of the source: active = GI50 up to about 1.1 µM and inactive = higher.
Let's look at some compounds and their measured GI50.

# example entries with known answers
COC(=O)C1=C(c2ccc(Cl)cc2)C(O)NC(NN)=N1 (configuration not stated): > 100 µM (inactive)
COc1ccc(/C=C2/SC(c3ccc(Cl)cc3)N(NC(=O)CCCCCCCCC(=O)NN3C(=O)/C(=C\c4ccc(OC)c(OC)c4)SC3c3ccc(Cl)cc3)C2=O)cc1OC (configuration not stated): > 100 µM (inactive)
NCC1OC(n2cnc3c(N)ncnc32)CC1O (configuration not stated): > 100 µM (inactive)
N#Cc1ccc(C(=O)/C=C/c2ccc(O)c(O)c2)cc1: 15.5 µM (inactive)
C=Cc1nc(C#N)c(N)o1: > 100 µM (inactive)

What value of measured GI50 is listed for "COc1cc(Cc2cc(OC)c(OC)c(OC)c2)ccc1O" ?
21.8 µM (inactive)

What value of measured GI50 is listed for O=[N+]([O-])c1ccc(C(O)(C#CCN2CCCC2)c2ccccc2)cc1 (configuration not stated) ?
38.3 µM (inactive)

What value of measured GI50 is listed for CC12CCc3ccccc3C1=NNC(=O)C2 (configuration not stated) ?
> 100 µM (inactive)

What value of measured GI50 is listed for "COc1ccccc1/N=N/C(=N/NC(=O)c1ccc(C)cc1)c1ccc(N(CCC#N)CCC#N)cc1OC" ?
28.3 µM (inactive)

What value of measured GI50 is listed for "COc1ccc(/C=C/C(=N/NC(=O)N/N=C(/C=C/c2ccc(OC)cc2)C(C)C)C(C)C)cc1" ?
> 100 µM (inactive)

src = ChEMBL document CHEMBL1201862
